Reference source: patent US20260008852A1

- target under test: T1, his-tagged B7-H3 (UniProt Q5ZPR3-2 29-245, limits assumed)
- T1 construct: also called CD276; not shown: His tag
- T1 sequence (looked up): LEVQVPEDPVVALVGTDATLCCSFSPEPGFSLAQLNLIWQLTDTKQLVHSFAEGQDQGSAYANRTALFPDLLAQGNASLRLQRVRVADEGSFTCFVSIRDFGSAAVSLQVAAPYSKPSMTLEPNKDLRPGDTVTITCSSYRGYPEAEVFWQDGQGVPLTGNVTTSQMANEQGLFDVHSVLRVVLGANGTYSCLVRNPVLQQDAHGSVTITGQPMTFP
- run description: SPR, Carterra LSA; binder captured by anti-human Fc, his-tagged B7-H3 injected
- Method: Binding affinities of anti-B7-H3 antibodies to B7-H3 were measured by Surface Plasmon Resonance (SPR) on a Carterra LSA instrument. Goat anti-human Fc antibody was amine coupled to a HC30M chip. ScFv-Fc supernatants were diluted 30-fold with HBSTE and were captured by the anti-human Fc coupled HC30M chip. A 1:2 dilution series of his-tagged B7-H3, starting at 400 nM, was injected onto the chip for binding. Data was analyzed using the Carterra TM Kinetics software.
recorded metric: koff (s⁻¹)
Dear colleague, please return just the value in s⁻¹, with no unit written.

Note down koff recorded for 40511p1.1.C3 scFv-Fc (scFv, V domains shown) VH: DVQLVESGGGVVRPGGSLRLSCAASGFTFRIYGMTWVRQAPGEGLEWVSTISGSGNSTYYADSVKGRFTISRDNSKNTLYLQMNSLRAEDTAVYYCAKTWNNYRFFDYWGLGTLVTVSS VL: EIVLTQSPGTLSLSPGERATLSCRASQPINSSYLAWYQQKPGQAPRLLIYAASSRATDIPDRFSGSGSGTDFTLTISSLQSEDFAVYYCQQYYDWPQFTFGGGTKVEIK
0.02

Note down koff recorded for 40633p1.1.G5 scFv-Fc (scFv, V domains shown, Tested as scFv-Fc supernatant) VH: EVQLLESGGGLVQPGGSLRLSCAASGFIVNYYGMSWVRQPPGKGLEWVSAIKQDGSEKYYADSVKGRFTISRDNSKTTLYLQMNSLRAEDTAVYYCARHWNDYSNGMNVWGQGTTVTVSS VL: QSVLTQPPSASGTPGQRVTISCSGSWSNIGSYNSHWYQKLPGTAPKLLIYTTDRRPSGVPDRFSGSKSGTSASLAISGLQSEDEADYYCGTWDDSLNVWVFGGGTKLTVL
0.06

Note down koff recorded for 40579p1.F7 scFv-Fc (scFv, V domains shown, Tested as scFv-Fc supernatant) VH: EVQLLESGGGLVQPGGSLRLSCAASGFTFSDYYMSWVRQAPGKGLEWVSGISISYGGNAYYADSVKGRFTVSRDNSKNTLYLQMNSLRAEDTAVYYCGRDRSPYQYRSMDVWGQGTTVTVSS VL: EIVLTQSPGTLSLSPGERATLTCRASQSVGDFLAWYQQKPGQAPRLLIYGASTRAAGIPARFRGSGSGTDFTLTISSLQSEDFAVYYCQQYKNWPPLTFGGGTKVEIK
0.02

Note down koff recorded for 40633p1.2.D1 scFv-Fc (scFv, V domains shown, Tested as scFv-Fc supernatant) VH: EVQLLESGGGLVQPGGSLRLSCAASGFTFDVYGMSWVRQAPGKGLEWVSAINWNGGSTYYADSVKGRFTISRDNSENTLYLQMNSLRAEDTAVYYCAKEKWKHFIYYGMDVWGQGTTVTVSS VL: QSVLTQPASASGTPGQTVSISCSGSSSNIDSNTANWYQQLPGTAPKLLIYSNNQRPSGVPDRFSGSKSDTSASLAISGLQSEDEGDYYCSAWDDNLNGWLFGGGTKLTVL
0.02
